Value source: ChEMBL document CHEMBL1142515

# Tested on: Canis familiaris
# assay.comment: AUC (0 to infinity) in Beagle dog at 1 mg/kg, po
# Format: ADME, organism-based, Canis lupus familiaris, Plasma
# Design: time infinity, dose 1 mg/kg, route oral
# recorded.conditions: in vivo
readout.kind: AUC (µM·h)
Numeric answer only, unit µM·h assumed.

Lookup: Field request: AUC | item: Cc1cccc2nc(C)n(-c3ccc(OC4CCN(C5CCC5)CC4)cc3)c(=O)c12
Found: 5.6

---

# assay.comment: Ratio of drug level brain to plasma in mdr1a (-/-) deficient CF1 mouse at 0.3 mg/kg, po after 2 hrs
# Format: ADME, organism-based
# Set-up: dose 0.3 mg/kg, route oral
# recorded.conditions: read-out: BPR
readout.kind: Kp at 2 h

Lookup: Field request: Kp at 2 h | item: Cc1nc2cccc(F)c2c(=O)n1-c1ccc(OC2CCN(C3CCC3)CC2)cc1
Found: 9.4

---

# assayed.system: Voltage-gated inwardly rectifying potassium channel KCNH2 (Homo sapiens, UniProt Q12809)
# Sequence (Q12809 whole entry): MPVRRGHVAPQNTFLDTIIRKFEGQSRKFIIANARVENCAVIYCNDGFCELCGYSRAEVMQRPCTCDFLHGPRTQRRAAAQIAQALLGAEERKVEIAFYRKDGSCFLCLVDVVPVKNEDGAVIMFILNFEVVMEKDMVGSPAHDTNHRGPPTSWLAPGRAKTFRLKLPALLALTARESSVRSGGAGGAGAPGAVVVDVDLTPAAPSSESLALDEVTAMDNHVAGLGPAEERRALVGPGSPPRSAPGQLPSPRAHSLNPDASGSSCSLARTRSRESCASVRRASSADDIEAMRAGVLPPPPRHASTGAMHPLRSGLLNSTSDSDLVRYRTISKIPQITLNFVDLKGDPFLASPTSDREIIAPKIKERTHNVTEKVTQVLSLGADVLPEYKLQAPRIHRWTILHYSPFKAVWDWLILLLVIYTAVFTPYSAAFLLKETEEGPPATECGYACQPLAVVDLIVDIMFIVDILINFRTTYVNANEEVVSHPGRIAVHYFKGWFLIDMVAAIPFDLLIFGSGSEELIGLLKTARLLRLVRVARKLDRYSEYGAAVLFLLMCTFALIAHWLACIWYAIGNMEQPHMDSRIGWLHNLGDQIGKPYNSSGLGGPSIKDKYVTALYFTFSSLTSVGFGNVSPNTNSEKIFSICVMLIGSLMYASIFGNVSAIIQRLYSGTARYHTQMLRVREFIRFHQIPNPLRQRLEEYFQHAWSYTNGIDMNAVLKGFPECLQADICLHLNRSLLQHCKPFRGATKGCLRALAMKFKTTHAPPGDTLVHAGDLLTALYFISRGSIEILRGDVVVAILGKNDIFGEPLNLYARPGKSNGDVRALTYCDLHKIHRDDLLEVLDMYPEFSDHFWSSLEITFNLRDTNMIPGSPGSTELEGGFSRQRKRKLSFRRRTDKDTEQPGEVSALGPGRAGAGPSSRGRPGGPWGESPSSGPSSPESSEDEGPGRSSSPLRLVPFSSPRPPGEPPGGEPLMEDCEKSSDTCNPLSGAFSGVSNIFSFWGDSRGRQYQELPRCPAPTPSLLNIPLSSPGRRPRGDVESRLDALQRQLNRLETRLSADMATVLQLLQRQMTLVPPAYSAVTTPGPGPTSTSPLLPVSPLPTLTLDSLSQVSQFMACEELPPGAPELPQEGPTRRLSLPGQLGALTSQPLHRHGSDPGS
# assay.comment: Antagonist activity at human ERG in HEK293 cells assessed as inhibition of [35S]N-[(4R)-1'-[(2R)-6-cyano-1,2,3,4-tetrahydro-2-naphthalenyl]-3,4-dihydro-4-hydroxyspiro[2H-1-benzopyran-2,4'-piperidin]-6-yl]methanesulfonamide binding
pIC50: −log10 of the molar value.
Record form. Attribute: pIC50. Fill in for each entry.

Lookup: Field request: pIC50 | item: Cc1nc2cc(Cl)ccc2c(=O)n1-c1ccc(OC2CCN(C3CCC3)CC2)cc1
Found: 5.41

Lookup: Field request: pIC50 | item: COc1cccc2nc(C)n(-c3ccc(OC4CCN(C5CCC5)CC4)cc3)c(=O)c12
Found: < 5.00

Lookup: Field request: pIC50 | item: COc1ccc2c(=O)n(-c3ccc(OC4CCN(C5CCC5)CC4)cc3)c(C)nc2c1
Found: < 5.00

Lookup: Field request: pIC50 | item: Cc1nc2cnccc2c(=O)n1-c1ccc(OC2CCN(C3CCC3)CC2)cc1
Found: < 5.00

Lookup: Field request: pIC50 | item: Cc1cccc2nc(C)n(-c3ccc(OC4CCN(C5CCC5)CC4)cc3)c(=O)c12
Found: < 5.00

Lookup: Field request: pIC50 | item: Cc1nc2ncccc2c(=O)n1-c1ccc(OC2CCN(C3CCC3)CC2)cc1
Found: < 5.00

Lookup: Field request: pIC50 | item: COc1cccc2c(=O)n(-c3ccc(OC4CCN(C5CCC5)CC4)cc3)c(C)nc12
Found: < 5.00

Lookup: Field request: pIC50 | item: Cc1nc2cccc(Cl)c2c(=O)n1-c1ccc(OC2CCN(C3CCC3)CC2)cc1
Found: < 5.00

Lookup: Field request: pIC50 | item: Cc1nc2ccccc2c(=O)n1-c1ccc(OC2CCC(N3CCCC3)C2)cc1 (stereo in doubt; 3b)
Found: 5.00

Lookup: Field request: pIC50 | item: Cc1nc2ccccc2c(=O)n1-c1ccc(OC2CCCN(C3CCC3)CC2)cc1 (stereo unspecified)
Found: 5.14

Lookup: Field request: pIC50 | item: Cc1nc2ccncc2c(=O)n1-c1ccc(OC2CCN(C3CCC3)CC2)cc1
Found: < 5.00

Lookup: Field request: pIC50 | item: Cc1nc2cccc(F)c2c(=O)n1-c1ccc(OC2CCN(C3CCC3)CC2)cc1
Found: < 5.00

Lookup: Field request: pIC50 | item: Cc1nc2ccccc2c(=O)n1-c1ccc(OC2CCN(C3CCC3)CC2)cc1
Found: < 5.00

Lookup: Field request: pIC50 | item: Cc1nc2cc(F)c(F)cc2c(=O)n1-c1ccc(OC2CCN(C3CCC3)CC2)cc1
Found: < 5.00

Lookup: Field request: pIC50 | item: Cc1nc2ccccc2c(=O)n1-c1ccc(OC2CCN(C3CCCC3)CC2)cc1
Found: < 5.00

Lookup: Field request: pIC50 | item: Cc1nc2ccccc2c(=O)n1-c1ccc(OC2CCC(N3CCCC3)C2)cc1 (stereo in doubt; 3a)
Found: < 5.00

Lookup: Field request: pIC50 | item: Cc1nc2cccnc2c(=O)n1-c1ccc(OC2CCN(C3CCC3)CC2)cc1
Found: < 5.00

Lookup: Field request: pIC50 | item: Cc1nc2ccc(F)cc2c(=O)n1-c1ccc(OC2CCN(C3CCC3)CC2)cc1
Found: < 5.00

Lookup: Field request: pIC50 | item: Cc1nc2cccc(C(F)(F)F)c2c(=O)n1-c1ccc(OC2CCN(C3CCC3)CC2)cc1
Found: < 5.00

Lookup: Field request: pIC50 | item: Cc1nc2ccc(Cl)cc2c(=O)n1-c1ccc(OC2CCN(C3CCC3)CC2)cc1
Found: 5.27

Lookup: Field request: pIC50 | item: COc1ccc2nc(C)n(-c3ccc(OC4CCN(C5CCC5)CC4)cc3)c(=O)c2c1
Found: < 5.00
